# System: OVCAR-4 ovarian
# TEST_DESCRIPTION: NCI-60 one-dose screen, 48 h
# EXPERIMENTAL_PARAMETERS: 10 µM unless noted
About 83,000 compounds went through this panel and 20% of them were active in at least one assay; those are over-represented in the sample as a whole. Activity calls are given as the source filed them. Rule for the calls: active = growth percent below 10; inactive = the rest.
Outcomes: t (active), f (inactive)

O=C(/C=C/c1sc(Cl)nc1Cl)c1ccc(Br)cc1	f
CCOC(=O)CC1C(COC(=O)NC)OC(n2cnc3c(NC(=O)Nc4ccccc4)ncnc32)C1O[Si](C)(C)C(C)(C)C (stereo not given)	f
FC(F)(F)c1cc(Nc2ccc3c(OCCCN4CCOCC4)cccc3n2)ccc1Cl	f
CN1CCN(Cc2ccc(NC(=O)c3cncc(C#Cc4cnccc4C#N)c3)cc2C(F)(F)F)CC1	f
COc1cccc(OC)c1C(=O)N[C@@H]1C(=O)N2[C@@H]1SC(C)(C)[C@@H]2C(=O)O	f
Cc1cccc(NC2=C(Cl)C(=O)c3nc(C)ccc3C2=O)c1	t
OC(COc1ccccc1Cl)CN1CCN(c2cccc(Cl)c2)CC1 (stereo not given)	f
COc1ccc(/C=N/Nc2cc(=O)[nH]c3ccc(Cl)cc23)cc1	f
O=c1cc(SCc2ccccc2)nc[nH]1	f
COc1ccc2c(c1)/C(=C/c1sc(=S)n(Cc3ccco3)c1O)C=N2	f
COc1nc2ccccc2cc1-c1nc2c(cnn2-c2ccccc2)c(=O)[nH]1	f
Nc1nc2ccccc2c2c(=O)c3cc(F)ccc3sc12	f
Cc1ccc2sc3c(NCCCN)nc4ccccc4c3c(=O)c2c1	f
O=c1c2cc(F)ccc2sc2c(NCCO)nc3ccccc3c12	f
COc1ccc(-c2nc3sc(-c4ccc(Cl)cc4)cn3n2)cc1	t
c1ccc(CO[C@H]2CO[C@H]3[C@@H]2OC[C@@H]3Oc2ccc(Nc3ncnc4ccsc34)cc2)cc1	f
CN1C(=O)CNC(=O)[C@H](NC(=O)c2nc3ccccc3cc2O)CSSC[C@H]1C(=O)NCCc1nc2ccccc2cc1O	f
C=C1C(=O)O[C@H]2[C@H]1CC/C(COC(=O)CSCC(=O)OC/C1=C/CC[C@@]3(C)O[C@H]3[C@H]3OC(=O)C(=C)[C@@H]3CC1)=C\CC[C@@]1(C)O[C@@H]21	f
Cc1ccc(NC2=C(Cl)C(=O)c3nc(C)ccc3C2=O)cc1	t
O=C(Nc1ccc(F)cc1F)c1cc(F)ccc1O	f

----------
# Test system: SN12C renal
# TEST_DESCRIPTION: NCI-60 one-dose screen, 48 h (100 = growth as untreated, 0 = no growth, -100 = all killed)
# EXPERIMENTAL_PARAMETERS: 10 µM unless noted
Compounds without any hit were thinned out: in the full panel of roughly 83,000, 20% have a hit.
Mark No for growth values under 70%, and Yes for everything at or above.

Cc1cc(=O)oc2cc(OC(=O)N3CCN(C)CC3)ccc12	Yes
O=C1CSC(c2c(Cl)cccc2Cl)N1c1nc(Cl)cc(=O)[nH]1 (stereo unspecified)	Yes
CC(=O)CC(c1cccs1)c1c(-c2ccccc2)[nH]c2ccccc12 (stereo unspecified)	Yes
NCCOc1ncccc1/C=C1\c2ccccc2-c2ccc(C(F)F)cc21	No
COc1nc2ccccc2cc1-c1nc2c(cnn2-c2ccccc2)c(=O)[nH]1	No
O=c1ccc(N=Nc2ccccc2)ccc1Cl	No
COC(=O)C(Cc1ccccc1)NC(=O)NC(=O)NC(=O)CI (stereo unspecified)	No
Nc1nc2ccccc2c2c(=O)c3cc(F)ccc3sc12	Yes
Cc1c(C(=O)NCCN2CCOCC2)cn2ncnc(Oc3ccc(NC(=O)Nc4ccc(Cl)c(C(F)(F)F)c4)cc3)c12	No
O=C1COCCN1c1ccc(NCc2cn(C(=O)c3ccc(Cl)cc3)c3ccccc23)cc1	Yes

----------
This listing pairs molecules with measured growth.
# Test system: A498 renal
# TEST_DESCRIPTION: NCI-60 one-dose screen, 48 h (100 = growth as untreated, 0 = no growth, -100 = all killed)
# EXPERIMENTAL_PARAMETERS: 10 µM unless noted
This is part of a sample that, as a whole, favours compounds with a hit. Of some 83,000 tested, about 20% had one in any assay.
READOUT_LABEL: growth (%)

O=c1ccc(N=Nc2ccccc2)ccc1Cl	191
Cn1cc(C(=O)c2nc(-c3cn(C)c4ccc(F)cc34)no2)c2cc(F)ccc21	113
COc1ccc(C2=Nn3c(nnc3-c3cc(Cl)cc(Cl)c3Cl)SC2)cc1	-11.3
Cc1nc2ccccc2n1-c1ncnc2c1CC(C)c1ccccc1N2C (stereo unspecified)	70.4
Nc1cc2c(cc1Br)-c1cc(Cl)ccc1C2=O	102
N#Cc1c(-c2ccc(Cl)cc2)nc2c(c(-c3ccccc3)nn2-c2ccccc2)c1-c1ccc(O)cc1	79.3
O=C(Nc1ccc(Cl)cc1F)c1ccccc1O	-21.8
O=C(CCN1C(=O)/C(=C/c2ccc(O)cc2)SC1=S)Nc1ccc(Cl)cc1	95
CCCCCCNC(=O)Oc1ccc(/C(=C(\C)c2ccc(OC)cc2)c2ccc(OCCN3CCCCC3)cc2)cc1	88.1
COc1cccc(-c2nn(-c3ccccc3)cc2-c2ccnc(N3CCOCC3)c2)c1	71.7
Cc1ccc(NC2=C(Cl)C(=O)c3nc(C)ccc3C2=O)cc1	91

----------
# System: NCI-H460 lung
# TEST_DESCRIPTION: NCI-60 one-dose screen, 48 h (100 = growth as untreated, 0 = no growth, -100 = all killed)
# EXPERIMENTAL_PARAMETERS: 10 µM unless noted
# Protocol: Growth inhibition of the NCI-H460 human Non-Small Cell Lung tumor cell line is measured as a screen for anti-cancer activity. Cells are grown in 96 well plates and exposed to the test compound for 48 hours. Compounds are tested at a single concentration, which is 10^-5 M for most compounds. The reported endpoint is percent growth (GI% or GIPRCNT), where numbers from 0 - 100% represent growth inhibition, and numbers from -100% - 0 represent cell death. […]
Compounds without any hit were thinned out: in the full panel of roughly 83,000, 20% have a hit.
READOUT_LABEL: growth (%)

CCCCNC(=O)Oc1ccc(/C(=C(\C)c2ccc(Cl)cc2)c2ccc(OCCN(CC)CC)cc2)cc1	72.6
COc1cccc(-c2nc(-c3ccc(NC(=O)C(C)C)cc3)[nH]c2-c2ccnc(Br)c2)c1	31.8
COc1ccc(C(=O)COC(=O)[C@H](C[Se][Se]C[C@H](NC(=O)c2ccc(Br)cc2F)C(=O)OCC(=O)c2ccc(OC)cc2)NC(=O)c2ccc(Br)cc2F)cc1	-36.6
C/C=C(\C)C(=O)N[C@H]1[C@@H](OC(C)=O)C[C@]2(C)C3CC[C@@]4(C)C(CC[C@@H]4C(C)N(C)C)C3CCC2[C@H]1O (stereo partly drawn)	59
O=C(S)CNC(=O)c1ccccc1	105
CN1CCN(c2ccc(-c3cnc4c(-c5csc6ccccc56)cnn4c3)cc2)CC1	-78.2
CC/C=C\C[C@@H](O)C/C=C1/C(=O)C=C[C@H]1C/C=C\CCCC(=O)OC	-33.2
COc1cc2cc(Oc3ccc(NC(=O)Nc4ccc(Cl)c(Cl)c4)cc3)c(C)nc2cc1OCCN1CCOCC1	91.8

----------
# Test system: SK-OV-3 ovarian
# TEST_DESCRIPTION: NCI-60 one-dose screen, 48 h (100 = growth as untreated, 0 = no growth, -100 = all killed)
# EXPERIMENTAL_PARAMETERS: 10 µM unless noted
Compounds without any hit were thinned out: in the full panel of roughly 83,000, 20% have a hit. Active and inactive are the calls of the source. How the source made its calls: active means growth percent below 10; inactive means the rest.
Each entry below carries its recorded growth.
READOUT_LABEL: growth

OC(COc1ccccc1)CN1CCN(c2ccc(Cl)cc2)CC1 (stereo unspecified)	102% (inactive)
Fc1cc(-c2nnc3n2NC(=Nc2ccc(Cl)cc2)CS3)c(Cl)cc1Cl	89.8% (inactive)
Cc1c(C(=O)/C=C/Nc2c(Cl)cc(S(N)(=O)=O)cc2Cl)sc2nc3ccccc3n12	111% (inactive)
O=CN(SSN(C=O)C1CCCCC1)C1CCCCC1	113% (inactive)
c1ccc(Cc2nn3cc(-c4ccccc4)nc3s2)cc1	112% (inactive)
O=C(O)C(c1ccccc1)N1C(=O)CSC1=S (stereo unspecified)	101% (inactive)

----------
# System: UACC-257 melanoma
# TEST_DESCRIPTION: NCI-60 one-dose screen, 48 h
# EXPERIMENTAL_PARAMETERS: 10 µM unless noted
Compounds without any hit were thinned out: in the full panel of roughly 83,000, 20% have a hit. Activity calls are given as the source filed them. How the source made its calls: active means growth percent below 10; inactive means the rest.
Classes used: yes for active, no for inactive

NCCCNc1nc2ccccc2c2c(=O)c3cccc(F)c3sc12	no
O=C(N/N=C/c1c(Cl)cccc1Cl)c1ccc(C(F)(F)F)nc1Nc1cccc(C(F)(F)F)c1	yes
CCCCNc1nc(NN2C(=O)c3cccc4cccc(c34)C2=O)nc(-n2cnc3ccccc32)n1	no
Cc1nc2cnc(N)c(C#Cc3cncc(C(=O)Nc4ccc(CN5CCN(C)CC5)c(C(F)(F)F)c4)c3)c2nc1C	yes
Cc1cc(N2CCCC2)nc(N(CCCNc2ccnc3cc(Cl)ccc23)Cc2ccccn2)n1	no
COc1nc2ccccc2cc1-c1nc2c(cnn2-c2ccccc2)c(=O)[nH]1	no
COc1cc(CCC[P+](c2ccccc2)(c2ccccc2)c2ccccc2)c(OC)c(OC)c1OC	no
COc1cc(C(=O)c2cnc(-c3cccc4[nH]ccc34)[nH]2)cc(OC)c1OC	no
CC(=O)c1ccc(Nc2nc(C(C)=O)c(C)s2)cc1	no
COc1ccc(-c2ncnc3c2ncn3CC#CCCl)cc1	no
Cc1cc2nc3ccc(N=Nc4ccc(N(C)C)cc4)cc3n(-c3ccccc3)c-2cc1=N	yes
C=C1C(=O)O[C@H]2[C@H]1CC/C(COC(=O)NCCOCCOCC(=O)Nc1ccc(OC)c(C(N)=O)c1O)=C\CC[C@@]1(C)O[C@@H]21	no
CN(C)CCNc1nc2ccccc2c2c(=O)c3cc(F)ccc3sc12	no
COc1cc(/C=C2\C(=O)Nc3ccc(Br)cc32)cc(OC)c1OC	no
COc1c(C2CC(=O)Nc3c2c(C)nn3-c2nc3ccccc3[nH]2)cc2c(c1OC)OCO2 (centres undefined)	no
CCCCCCCCCCCCCCCCCCOc1ccc(CC(=O)OCC[N+](C)(C)C)cc1	no
Cc1c(C(=O)/C=C/Nc2c(Cl)cc(S(N)(=O)=O)cc2Cl)sc2nc3ccccc3n12	no
C#Cc1cccc(NC(=O)Nc2ccccc2NC(=O)CCl)c1	yes
CCc1cccc2c1S/C(=C/c1ccc(Cl)cc1)C2=O	no
CCCCn1c(=O)c(-c2cc(-c3ccc(Cl)cc3)nc(-c3ccc(Cl)cc3)c2)cc2ccc(Cl)cc21	no
CC([C@H]1CCC2C3CCC4C(=O)C(NC=O)=CC[C@]4(C)C3CC[C@@]21C)N(C)C (some centres undefined)	yes
Oc1ccc(CCl)c2cccnc12	no
O=C(Nc1c2ccccc2nc2ccccc12)c1ccccc1CN1C(=O)c2ccccc2C1=O	no
O=C(CCc1nnc(-c2c(Cl)cccc2Cl)o1)c1nc2ccccc2[nH]1	no
CC(=O)OC[C@H]1OC(Sc2sc(C(=O)c3ccc(C)cc3)c(N)c2-c2nc3ccccc3s2)[C@H](OC(C)=O)[C@@H](OC(C)=O)[C@@H]1OC(C)=O (some centres undefined)	no
COc1cc(C(=O)/C=C/c2sc(Cl)nc2Cl)cc(OC)c1OC	no
COc1ccc(-c2cnc3ccccc3n2)cc1	no
NC1CCN(c2nc(Nc3cccc(C(F)(F)F)c3)c3c(=O)[nH]ccc3n2)CC1	yes
Cc1c(C(=O)N[C@@H](Cc2ccccc2)C(=O)C(=O)NCc2ccc(F)cc2)[nH]c2ccccc2c1=O	no
COC(=O)C(Cc1ccccc1)NC(=O)NC(=O)NC(=O)CI (centres undefined)	no
CCc1nnc(NC(=O)c2nnn(-c3ccccc3)c2-c2ccco2)s1	no
COc1cc(C(=O)/C=C/c2ccc(OCCCCCC[P+](c3ccccc3)(c3ccccc3)c3ccccc3)cc2)cc(OC)c1OC	yes
Fc1cc(-c2nnc3sc(-c4ccc(Cl)cc4Cl)nn23)c(Cl)cc1Cl	no
COc1ccc2c(c1)nc(NNC(=O)c1cnccn1)c1cccn12	no
CCOC(=O)CC1C(COC(=O)NC)OC(n2cnc3c(NC(=O)Nc4ccccc4)ncnc32)C1O[Si](C)(C)C(C)(C)C (centres undefined)	no
COc1ccc(C(=O)C(C)C)c2ccccc12	no
COc1ccc(C2CC(c3ccc(Nc4nc(Nc5ccc(F)cc5)nc(Nc5ccc(Cl)cc5)n4)cc3)=NN2C(C)=O)cc1 (centres undefined)	no
COc1ccc(CN2c3ccccc3CCc3ccccc32)cc1F	no
CNc1ccc(Nc2cccc(C)c2)c2c1C(=O)c1ccccc1C2=O	no

Source: PubChem BioAssay (NCI)
